test system: NCI-H196 SCLC complex tumor spheroid viability; assay: Anticancer human tumor NCI-H196 cell line growth inhibition; conditions: second compound 0.00949 µM; first compound 0.1 µM; stronger effect = lower value;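 note: spheroids exposed to compounds for 7 days before readout; 100% = DMSO vehicle control wells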
quantity.name: viability, T/C (%)
Answers are plain numbers, in %.

compound	quantity.name	observed.value
COc1ccc([C@@H](O)c2cc(-c3ncnc4cc(N5CCOCC5)ccc34)c(F)cc2Cl)nn1 + CC[C@@]1(O)C(=O)OCc2c1cc1n(c2=O)Cc2cc3c(CN(C)C)c(O)ccc3nc2-1	viability, T/C	97.1
Cc1cc(C)c(CNC(=O)c2cc(-c3ccc(CN4CCOCC4)cc3)cc3c2cnn3C2CCCC2)c(=O)[nH]1 + CC[C@@]1(O)C(=O)OCc2c1cc1n(c2=O)Cc2cc3c(CN(C)C)c(O)ccc3nc2-1	viability, T/C	105
CC1COCCN1c1cc(-c2ccnn2C)c2ccnc(-c3ccn[nH]3)c2n1 (stereo unspecified) + CC[C@@]1(O)C(=O)OCc2c1cc1n(c2=O)Cc2cc3c(CN(C)C)c(O)ccc3nc2-1	viability, T/C	69.9
COc1cc(C)[nH]c(=O)c1CN1CCc2c(Cl)cc(C(OC)C3COC3)c(Cl)c2C1=O (stereo unspecified) + CC[C@@]1(O)C(=O)OCc2c1cc1n(c2=O)Cc2cc3c(CN(C)C)c(O)ccc3nc2-1	viability, T/C	98.6
CC(C)n1c(=O)n(C)c2cnc3cc(F)c(-c4ccc(OCCCN5CCCCC5)nc4)cc3c21 + CC[C@@]1(O)C(=O)OCc2c1cc1n(c2=O)Cc2cc3c(CN(C)C)c(O)ccc3nc2-1	viability, T/C	107

Inquiry: Which value of viability, T/C has been reported for [2H]c1nc(C)nc([2H])c1-c1cc(NC[C@@H](C)c2cccc3c(C(=O)NC)ccnc23)ncn1 + CC[C@@]1(O)C(=O)OCc2c1cc1n(c2=O)Cc2cc3c(CN(C)C)c(O)ccc3nc2-1 in the records?
Reply text: 96.5

###

system: NCI-H196 SCLC complex tumor spheroid viability; test: Anticancer human tumor NCI-H196 cell line growth inhibition; conditions: second compound 31.6 µM; first compound 0.0949 µM; stronger effect = lower value;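 note: spheroids exposed to compounds for 7 days before readout; 100% = DMSO vehicle control wells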
quantity.name: viability, T/C (%)
Answers are plain numbers, in %.

compound	observed.value
Cc1sc2c(c1C)C(c1ccc(Cl)cc1)=NC(CC(=O)Nc1ccc(O)cc1)c1nnc(C)n1-2 (centres undefined) + Cn1nnc2c(C(N)=O)ncn2c1=O	93.7
Cn1ncnc1[C@H]1c2n[nH]c(=O)c3cc(F)cc(c23)N[C@@H]1c1ccc(F)cc1 + Cn1nnc2c(C(N)=O)ncn2c1=O	94.8
CNCc1ccc(-c2cc(-c3nc(-c4ccc(S(=O)(=O)C(C)C)cc4)cnc3N)on2)cc1 + Cn1nnc2c(C(N)=O)ncn2c1=O	106

Inquiry: Bench note: what viability, T/C did O=C(c1cc(Cc2n[nH]c(=O)c3ccccc23)ccc1F)N1CCN(C(=O)C2CC2)CC1 + Cn1nnc2c(C(N)=O)ncn2c1=O show?
Reply text: 101

###

test system: NCI-H196 SCLC complex tumor spheroid viability; test: Anticancer human tumor NCI-H196 cell line growth inhibition; conditions: second compound 0.0949 µM; first compound 3.16 µM; stronger effect = lower value;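 note: spheroids exposed to compounds for 7 days before readout; 100% = DMSO vehicle control wells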
I'd be grateful if you could share measured viability, T/C for these entries.
One number for each entry, in %.

Here's what some known entries look like.
molecule	measurement.unit	viability, T/C
COc1cc(C)[nH]c(=O)c1CN1CCc2c(Cl)cc(C(OC)C3COC3)c(Cl)c2C1=O (stereo not drawn) + CC[C@@]1(O)C(=O)OCc2c1cc1n(c2=O)Cc2cc3c(CN(C)C)c(O)ccc3nc2-1	%	94.2
Cc1cc(C)c(CNC(=O)c2cc(-c3ccc(CN4CCOCC4)cc3)cc3c2cnn3C2CCCC2)c(=O)[nH]1 + CC[C@@]1(O)C(=O)OCc2c1cc1n(c2=O)Cc2cc3c(CN(C)C)c(O)ccc3nc2-1	%	97

--- query ---
Inquiry: Please tell me: viability, T/C of CC(C)n1c(=O)n(C)c2cnc3cc(F)c(-c4ccc(OCCCN5CCCCC5)nc4)cc3c21 + CC[C@@]1(O)C(=O)OCc2c1cc1n(c2=O)Cc2cc3c(CN(C)C)c(O)ccc3nc2-1 , system NCI-H196 SCLC complex tumor spheroid viability?
Reply text: 74.9
